Cited source: paper PMC8403975

# System: PMA-differentiated THP-1 cells
# ASSAY TEXT: PMA-differentiated THP-1 cell viability assay
# Format: cell-based
# EXPERIMENTAL PARAMETERS: Homo sapiens, THP-1, 24 h
RESULT TYPE: IC50

1. CC1=C(C(=O)Nc2ccccc2)C(c2ccccc2Br)NC(=S)N1 (centres unmarked) | 485 µg/mL
2. CC1=C(C(=O)Nc2ccccc2)C(c2ccccc2Cl)NC(=S)N1 (centres unmarked) | 464 µg/mL
3. CC1=C(C(=O)O)C(c2ccccc2Cl)NC(=S)N1 (centres unmarked) | 967 µg/mL
4. CC1=C(C(=O)O)C(c2ccccc2C#N)NC(=S)N1 (centres unmarked) | 496 µg/mL
5. CCOC(=O)C1=C(C)NC(=S)NC1c1ccccc1Cl (centres unmarked) | 698 µg/mL
6. CC1=C(C(=O)Nc2ccccc2)C(c2ccccc2C#N)NC(=S)N1 (centres unmarked) | 434 µg/mL
7. CCOC(=O)C1=C(C)NC(=S)NC1c1ccccc1C#N (centres unmarked) | 1550 µg/mL
8. CC1=C(C(=O)Nc2ccc(C)cc2)C(c2ccccc2C#N)NC(=S)N1 (centres unmarked) | 222 µg/mL
